Procedure Details: Cytotoxicity against human MT4 cells assessed as cell viability
Type: cell-based
Known CC50 of a selection of compounds
Respond with the bare value in µM.

| Structure | CC50, µM |
| --- | --- |
| Cc1cc(C)cc(S(=O)(=O)n2c(SCC(=O)Nc3ccccc3Br)nc3ccc(Cl)cc32)c1 | 145 |
| Cc1cc(C)cc(S(=O)(=O)n2c(SCC(=O)Nc3ccc(S(N)(=O)=O)cc3Cl)nc3ccccc32)c1 | 25.6 |

Ask | Item `Cc1cc(C)cc(Cn2c(SCC(=O)Nc3ccccc3Cl)nc3ccc(Cl)cc32)c1` : provide CC50
Reply | 141

Ask | Item `Cc1cc(C)cc(S(=O)(=O)n2c(=S)[nH]c3ccc(Cl)cc32)c1` : provide CC50
Reply | 93.1

---

Procedure Details: Selectivity index, ratio of CC50 for human MT4 cells to EC50 for HIV-1 3B
Assay type: toxicity, cell-based
Condition Set: read-out: Ratio CC50/EC50
Measure: selectivity ratio
Give a plain numeric answer without units written out.

Ask | Item `Cc1cc(C)cc(S(=O)(=O)n2c(SCC(=O)Nc3ccc(S(N)(=O)=O)cc3Cl)nc3ccccc32)c1` : provide selectivity ratio
Reply | 1280

Ask | Item `Cc1cc(C)cc(Cn2c(SCC(=O)Nc3ccccc3[N+](=O)[O-])nc3ccccc32)c1` : provide selectivity ratio
Reply | 184

Ask | Item `Cc1cc(C)cc(Cn2c(SCC(=O)Nc3ccccc3Cl)nc3ccccc32)c1` : provide selectivity ratio
Reply | 99

Ask | Item `Cc1cc(C)cc(S(=O)(=O)n2c(SCC(=O)Nc3ccccc3Br)nc3ccc(Cl)cc32)c1` : provide selectivity ratio
Reply | 37

Ask | Item `Cc1cc(C)cc(Cn2c(SCC(=O)Nc3ccc(S(C)(=O)=O)cc3Cl)nc3ccccc32)c1` : provide selectivity ratio
Reply | 196

Ask | Item `Cc1cc(C)cc(Cn2c(SCC(=O)Nc3ccc(S(N)(=O)=O)cc3Cl)nc3ccccc32)c1` : provide selectivity ratio
Reply | 530

Ask | Item `Cc1cc(C)cc(S(=O)(=O)n2c(SCC(=O)Nc3ccccc3Cl)nc3ccc(Cl)cc32)c1` : provide selectivity ratio
Reply | 56

---

Procedure Details: Cytotoxicity against human MT4 cells assessed as cell viability
Assay type: cell-based
Measure: CC50 (µM)
Respond with the bare value in µM.

Some compounds with recorded CC50:
| Structure | Units | CC50 |
| --- | --- | --- |
| Cc1cc(C)cc(Cn2c(SCC(=O)Nc3ccccc3[N+](=O)[O-])nc3ccc(Cl)cc32)c1 | µM | 131 |
| Cc1cc(C)cc(S(=O)(=O)n2c(SCC(=O)Nc3ccc(S(N)(=O)=O)cc3Cl)nc3ccc(Cl)cc32)c1 | µM | 23.4 |
| COC(=O)c1ccc(NC(=O)CSc2nc3ccccc3n2S(=O)(=O)c2cc(C)cc(C)c2)c(Cl)c1 | µM | 145 |
| Cc1cc(C)cc(S(=O)(=O)n2c(SCC(=O)Nc3ccccc3Cl)nc3ccccc32)c1 | µM | 107 |

Let's switch to this compound now.
Ask | Item `Cc1cc(C)cc(Cn2c(SCC(=O)Nc3ccccc3Cl)nc3ccccc32)c1` : provide CC50
Reply | 111

---

Procedure Details: Selectivity index, ratio of CC50 for human MT4 cells to EC50 for HIV-1 3B
Type: toxicity, cell-based
Condition Set: read-out: Ratio CC50/EC50
Measure: selectivity ratio
Give a plain numeric answer without units written out.

Some compounds with recorded selectivity ratio:
| Structure | selectivity ratio |
| --- | --- |
| Cc1cc(C)cc(S(=O)(=O)n2c(=S)[nH]c3ccccc32)c1 | 455 |
| Cc1cc(C)cc(S(=O)(=O)n2c(SCC(=O)Nc3ccc(C)cc3Cl)nc3ccccc32)c1 | 135 |

Ask | Item `Cc1cc(C)cc(S(=O)(=O)n2c(SCC(=O)Nc3ccc(S(N)(=O)=O)cc3Cl)nc3ccc(Cl)cc32)c1` : provide selectivity ratio
Reply | 38

Ask | Item `Cc1cc(C)cc(S(=O)(=O)n2c(SCC(=O)Nc3ccccc3Cl)nc3ccccc32)c1` : provide selectivity ratio
Reply | 1220

Ask | Item `Cc1cc(C)cc(Cn2c(=S)[nH]c3ccc(Cl)cc32)c1` : provide selectivity ratio
Reply | 4

Ask | Item `Cc1cc(C)cc(Cn2c(=S)[nH]c3ccccc32)c1` : provide selectivity ratio
Reply | 4
